Catalogue of compounds with associated growth
# System: SNB-19 CNS
# ASSAY EXPLANATION: NCI-60 one-dose screen, 48 h (100 = growth as untreated, 0 = no growth, -100 = all killed)
# DETAILS: 10 µM unless noted
# Protocol: Growth inhibition of the SNB-19 human tumor cell line is measured as a screen for anti-cancer activity. Cells are grown in 96 well plates and exposed to the test compound for 48 hours. Compounds are tested at a single concentration, which is 10^-5 M for most compounds. The reported endpoint is percent growth (GI% or GIPRCNT), where numbers from 0 - 100% represent growth inhibition, and numbers from -100% - 0 represent cell death. For example, a value of 40 represents 60% growth inhibition. […]
Compounds without any hit were thinned out: in the full panel of roughly 83,000, 20% have a hit. The source made the active and inactive calls. The calls were made as follows: active = growth percent below 10; inactive = the rest.

Q. // query growth value for entry COc1cc(C2CC(c3ccc(S(=O)(=O)NCCNc4nc(Nc5ccc(F)cc5)nc(N(C)C)n4)cc3)=Nc3c(N)nc(N)nc3N2)cc(OC)c1OC (stereo not drawn)
A. 67.5% (inactive)

Q. # lookup: growth of Cn1cc(-c2cc3nc(-c4c[nH]c5ccc(Cl)cc45)cc(N)n3n2)c2ccccc21
A. -72.3% (active)

Q. For the compound CC1(c2cc3cc(Cl)ccc3oc2=O)NC(=O)c2c(/C=C/C(=O)OC3CC4CCC3(C)C4(C)C)cccc2N1 (stereo not drawn) , what growth is on record?
A. 52.9% (inactive)

---
Q. GET /values?readout=growth&item= C=C1CCC2C3(C)COC(c4ccc(F)cc4)OC3CCC2(C)C1CC(O)C1=CCOC1=O (stereo not drawn)
A. 76.4% (inactive)

Q. // returns reported growth for input CC(=O)N1CCN(Cc2ccc3c(NNC(=O)c4cnccn4)nc4cc(F)ccc4n23)CC1
A. 25.4% (inactive)

====

# Tested on: MDA-MB-435 melanoma
# ASSAY EXPLANATION: NCI-60 one-dose screen, 48 h
# DETAILS: 10 µM unless noted
About 83,000 compounds went through this panel and 20% of them were active in at least one assay; those are over-represented in the sample as a whole. Active and inactive are the calls of the source. How the source made its calls: active means growth percent below 10; inactive means the rest.
In this exercise, the only acceptable responses are true (1) for active, false (0) for inactive

Q. Outcome? CCCCCCCCOc1cccc(S(=O)(=O)Nc2ccc(C)cc2C(=O)O)c1
A. false (0)

New cases:
Q. How did this test come out for O=[N+]([O-])c1ccc(/C=C/c2nc3ccccc3n3c(=S)[nH]nc23)cc1 ?
A. false (0)

Q. What did the test return for O=C1c2c(c3c4cc(F)ccc4oc3c3[nH]c4ccc(Br)cc4c23)C(=O)N1O ?
A. false (0)

Q. State the result this test recorded for Cc1c(C(=O)NNC(=O)c2ccc(Cl)cc2)nnn1-c1ccc(Cl)cc1 .
A. false (0)

Q. # lookup: test call for COc1ccc(-c2nc(SCC(C)C)nc(NCCc3c[nH]c4ccccc34)c2C#N)cc1
A. false (0)

====

# Test system: OVCAR-8 ovarian
# ASSAY EXPLANATION: NCI-60 one-dose screen, 48 h (100 = growth as untreated, 0 = no growth, -100 = all killed)
# DETAILS: 10 µM unless noted
The panel holds about 83,000 compounds, 20% with a hit somewhere; the sample as a whole holds those more often.
Kindly note that classification relies on growth with these boundaries: 1: < 30%; 2: ≥ 30% and < 90%; 3: ≥ 90%

Please review the following examples before continuing.
Q. Exercise: read the entry CCCCCCn1c(O)c(N=Nc2nc(-c3cc4ccccc4oc3=O)cs2)c2ccccc21 and state which class it falls under.
A. 2

Q. Hey, which category is O=C1NC(=O)c2c1c1c3cc(Br)ccc3[nH]c1c1oc3ccc(F)cc3c21 in, do you know?
A. 1

Q. Determine which band this compound sits in: Cc1ccc(C2=NN(c3nc(-c4cc5ccccc5oc4=O)cs3)C(c3ccc(C)cc3)C2)cc1 (centres undefined)
A. 3

Q. # bin lookup: classify CC(C)c1ccc2c(N)c(C(=O)Nc3ccc(C(F)(F)F)cn3)sc2n1 by its growth
A. 2

Q. Band of C=C1CC[C@@H]2[C@]3(C)COC(c4cn(-c5ccccc5)nc4-c4ccccc4)O[C@@H]3CC[C@@]2(C)[C@@H]1C/C=C1/C(=O)OC[C@H]1O (some centres undefined) ?
A. 1

New cases:
Q. Given Cc1cc(C)n(-c2ccc3nnc(-c4ccccc4)n3n2)n1 , name the class its growth places it in.
A. 3

Q. Which category fits this record: CC(C)CSc1nc(NCCc2c[nH]c3ccccc23)c(C#N)c(-c2ccc(Cl)cc2)n1
A. 2

Q. Would you mind sorting CCCCCCCCc1ccc(C(=O)Nc2ccc(C)cc2C(=O)O)cc1C into the appropriate category?
A. 3
